Target: human PAH with the R408W mutation (Homo sapiens, UniProt P00439, R408W)
Construct: expressed in transfected cells
Sequence (P00439 1-452 R408W): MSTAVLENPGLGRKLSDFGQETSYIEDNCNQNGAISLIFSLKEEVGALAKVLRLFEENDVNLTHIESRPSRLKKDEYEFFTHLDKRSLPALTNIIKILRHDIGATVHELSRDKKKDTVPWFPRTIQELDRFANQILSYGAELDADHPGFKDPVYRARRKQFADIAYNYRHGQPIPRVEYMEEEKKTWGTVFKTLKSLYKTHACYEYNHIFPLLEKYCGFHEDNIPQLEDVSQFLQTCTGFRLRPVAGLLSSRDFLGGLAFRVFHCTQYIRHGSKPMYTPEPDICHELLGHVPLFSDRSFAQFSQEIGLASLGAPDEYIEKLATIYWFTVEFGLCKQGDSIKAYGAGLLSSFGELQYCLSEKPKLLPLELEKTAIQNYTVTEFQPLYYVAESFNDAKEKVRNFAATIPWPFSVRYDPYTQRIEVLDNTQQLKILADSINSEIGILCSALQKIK
Experiment: Cell Based Phenylalanine Flux Assay
Settings: A375 cells expressing R408W PAH; 24 hrs with compound, then 20 µM sepiapterin and 800 µM 13C9,15N-Phenylalanine for 4 hours; 13C-Tyrosine by LC-MS; average where tested multiple times; read-out: AC50
Item-by-item account of AC50

Worked cases, AC50 given:
[[record]]
compound = "CC(C)(O)c1nnc(C(=O)N2CCc3[nH]cnc3C2c2cc3cc(F)ccn3n2)o1 (centres unmarked)"
measured_value = "> 5 µM"

[[record]]
compound = "CC(C)(O)c1nc(C(=O)N2CCc3[nH]cnc3C2c2cc3ccccn3n2)no1 (centres unmarked)"
measured_value = "> 5 µM"

[[record]]
compound = "Cc1nc(C(C)(C)O)oc1C(=O)N1CCc2[nH]cnc2C1c1cc2cccc(C(F)(F)F)n2n1 (centres unmarked)"
measured_value = "1 to 5 µM"

[[record]]
compound = "CC(C)(C)c1nnc(C(=O)N2CCc3[nH]cnc3C2c2cc3cc(C(F)(F)F)ccn3n2)o1 (centres unmarked)"
measured_value = "1 to 5 µM"


// next item, AC50 requested
QUERY: Would you kindly share the measured AC50 for O=C(c1cnco1)N1CCc2[nH]cnc2C1c1cc2cccc(C(F)(F)F)n2n1 (centres unmarked) ?
RESULT: 1 to 5 µM

###

Molecular target: human PAH with the R408W mutation (Homo sapiens, UniProt P00439, R408W)
Construct: expressed in transfected cells
Assay: Cell Based Phenylalanine Flux Assay;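 note: after compound treatment, cells received sepiapterin plus isotope-labelled Phenylalanine for 4 hours, then labelled Tyrosine in the medium was quantified, 10-point 2-fold dilution series run in duplicate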
Conditions: A375 cells expressing R408W PAH; 24 hrs with compound, then 20 µM sepiapterin and 800 µM 13C9,15N-Phenylalanine for 4 hours; 13C-Tyrosine by LC-MS; average where tested multiple times; read-out: AC50
readout_kind: AC50

Worked cases, AC50 given:
[[record]]
compound = "CN(C)Cc1ccc2c(C(=O)N3CCc4[nH]cnc4C3c3cc4ccccn4n3)cnn2c1 (single isomer, unassigned)"
measured_value = "1 to 5 µM"

[[record]]
compound = "CC(C)(F)c1nnc(N2CCc3[nH]cnc3C2c2cc3c(F)cccn3n2)o1 (stereo not drawn)"
measured_value = "1 to 5 µM"

[[record]]
compound = "CC(C)(F)c1nnc(N2CCc3[nH]cnc3C2c2cc3c(C(F)(F)F)cccn3n2)o1 (stereo not drawn)"
measured_value = "> 5 µM"


QUERY: What measured AC50 is associated with CC(C)c1cccn2nc(C3c4nc[nH]c4CCN3c3nnc(C(C)(C)F)o3)cc12 (stereo not drawn) on human PAH with the R408W mutation (Homo sapiens, UniProt P00439, R408W)?
RESULT: 1 to 5 µM

QUERY: What measured AC50 is associated with Cc1cccc2cc(C3c4nc[nH]c4CCN3C(=O)c3nnc(C4CC(F)(F)C4)o3)nn12 (stereo not drawn) on human PAH with the R408W mutation (Homo sapiens, UniProt P00439, R408W)?
RESULT: > 5 µM

QUERY: What measured AC50 is associated with CN(C)Cc1ccc2c(C(=O)N3CCc4[nH]cnc4C3c3cc4cccc(C(F)(F)F)n4n3)cnn2c1 (stereo not drawn) on human PAH with the R408W mutation (Homo sapiens, UniProt P00439, R408W)?
RESULT: 1 to 5 µM

QUERY: What measured AC50 is associated with CC(C)(F)c1nnc(C(=O)N2CCc3[nH]cnc3C2c2cc3cc(F)ccn3n2)o1 (stereo not drawn) on human PAH with the R408W mutation (Homo sapiens, UniProt P00439, R408W)?
RESULT: 1 to 5 µM

QUERY: What measured AC50 is associated with COc1ccc2c(C(=O)N3CCc4[nH]cnc4C3c3cc4c(OC)cccn4n3)cnn2c1 (stereo not drawn) on human PAH with the R408W mutation (Homo sapiens, UniProt P00439, R408W)?
RESULT: 1 to 5 µM

QUERY: What measured AC50 is associated with FC(F)c1cccc2cc(C3c4nc[nH]c4CCN3c3ncccn3)nn12 (stereo not drawn) on human PAH with the R408W mutation (Homo sapiens, UniProt P00439, R408W)?
RESULT: 1 to 5 µM
